Parameter: IC50. Scope: all listed entries.
# subject.of.test: Activated ERK1 (Homo sapiens (Human))
# Sequence (P27361 whole entry): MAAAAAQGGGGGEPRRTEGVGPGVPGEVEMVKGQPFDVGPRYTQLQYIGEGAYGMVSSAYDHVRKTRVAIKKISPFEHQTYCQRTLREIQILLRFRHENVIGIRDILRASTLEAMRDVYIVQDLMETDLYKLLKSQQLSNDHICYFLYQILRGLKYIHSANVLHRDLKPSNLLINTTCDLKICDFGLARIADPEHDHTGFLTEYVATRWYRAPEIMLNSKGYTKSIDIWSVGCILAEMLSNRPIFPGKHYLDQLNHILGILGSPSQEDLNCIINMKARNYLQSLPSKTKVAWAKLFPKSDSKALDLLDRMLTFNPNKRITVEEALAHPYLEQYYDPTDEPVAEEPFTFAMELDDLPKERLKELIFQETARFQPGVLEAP
# method.notes: Active ERK1 kinase assay (Mobility Shift Assay)

| compound | IC50 |
| --- | --- |
| CC(C)Oc1ccc(-c2n[nH]c3ccc(N4CC[C@@]5(CCN(CC(=O)N6CC=C(c7ccc(-c8ncn(C)n8)cc7)CC6)C5)C4=O)cc23)cn1 | ≥ 250 nM |
| CC(C)Oc1ccc(-c2n[nH]c3ccc(N4CCC5(CCN(CC(=O)N6CC=C(c7ccc(-c8ncn(C)n8)cc7)CC6)C5)C4=O)cc23)cn1 (stereo not drawn) | ≤ 50 nM |
| Cn1cnc(-c2ccc(C3=CCN(C(=O)CN4CC[C@]5(CCN(c6ccc7[nH]nc(-c8ccnc(C(F)(F)F)c8)c7c6)C5=O)C4)CC3)cc2)n1 | ≤ 50 nM |
| CC(C)Oc1ccc(-c2n[nH]c3ccc(N4CCC5(CN(CC(=O)N6CC=C(c7ccc(-c8ncn(C)n8)cc7)CC6)C5)C4=O)cc23)cn1 | 50 to 250 nM |
| CC(C)Oc1ccc(-c2n[nH]c3ccc(N4CC[C@]5(CCN(CC(=O)N6CCC(c7ccc(-c8ncn(C)n8)cc7)CC6)C5)C4=O)cc23)cn1 | ≤ 50 nM |
| Cc1cc(-c2n[nH]c3ccc(N4CC[C@@]5(CCN(CC(=O)N6CC=C(c7ccc(-c8ncn(C)n8)cc7)CC6)C5)C4=O)cc23)ccn1 | 50 to 250 nM |

---

Each entry below carries its reported IC50.
# Tested on: 8505C (Thyroid) cells
# method.notes: Proliferation assay (CellTiter-Glo), 8505C
# Assay type: cell-based
# run.conditions: Homo sapiens, 72 h, 8505C cells, 3 days
# Method: A375 (melanoma), Colo-205 (colon cancer), Miapaca (pancreatic), HPAFII (pancreatic), sNF02.0 (neurofibromatosis type 1), sNF96.2 (neurofibromatosis type 1) and 8505 (Thyroid) cells were grown and maintained in RPMI-1640 medium containing 100 U/mL penicillin-streptomycin and 10% fetal bovine serum. […] The bottom of the plates was pasted with white back seal and luminescence was recorded with Flexstation3 with setting of luminescence, integration time 500 ms.

| entry.smiles | subject.of.test | IC50 |
| --- | --- | --- |
| CC(C)Nc1cc(-c2c[nH]c(C(=O)N[C@H](CO)c3cccc(Cl)c3)c2)c(Cl)cn1 | 8505C (Thyroid) cells | ≥ 1000 nM |
| CC(C)Oc1ccc(-c2n[nH]c3ccc(N4CC[C@]5(CCN(CC(=O)N6CC=C(c7ccc(-c8ncn(C)n8)cc7)CC6)C5)C4=O)cc23)cn1 | 8505C (Thyroid) cells | ≥ 1000 nM |
| Cc1cc(-c2n[nH]c3ccc(N4CC[C@]5(CCN(CC(=O)N6CC=C(c7ccc(-c8ncn(C)n8)cc7)CC6)C5)C4=O)cc23)ccn1 | 8505C (Thyroid) cells | ≤ 500 nM |
| O=C(Nc1ccc2[nH]nc(-c3ccncc3)c2c1)[C@@H]1CCN(CC(=O)N2CCN(c3ccc(-c4ncccn4)cc3)CC2)C1 | 8505C (Thyroid) cells | 500 to 1000 nM |
| Cn1cnc(-c2ccc(C3=CCN(C(=O)CN4CC[C@]5(CCN(c6ccc7[nH]nc(-c8ccnc(C9(C(F)(F)F)CC9)c8)c7c6)C5=O)C4)CC3)cc2)n1 | 8505C (Thyroid) cells | ≥ 1000 nM |
| Cn1cnc(-c2ccc(C3=CCN(C(=O)CN4CC[C@]5(CCN(c6ccc7[nH]nc(-c8ccc(F)cc8)c7c6)C5=O)C4)CC3)cc2)n1 | 8505C (Thyroid) cells | 500 to 1000 nM |

Source of measurements: patent US10493060B2
